Assay: Biodistribution in HEK293-hsst2A+ tumor-bearing mice
Assay type: in vivo
Details: mouse, blood, iv, total radioactivity; HEK293-hsst2A+ tumor SCID mice, 4 h pi + co-injection of 35 nmol DP2; mean ± SD; read-out: Blood uptake, blocked
measurement-kind: tissue uptake at 4 h (%ID/g)
Answer format: numeric, %ID/g implied, no suffix.

Inquiry: Need tissue uptake at 4 h of C[C@H](NC(=O)CN1CCN(CC(=O)O)CCN(CC(=O)O)CCN(CC(=O)O)CC1)C(=O)NCC(=O)N[C@H]1CSSC[C@@H](C(=O)O)NC(=O)[C@H](CO)NC(=O)[C@H]([C@@H](C)O)NC(=O)[C@H](Cc2ccccc2)NC(=O)[C@H]([C@@H](C)O)NC(=O)[C@H](CCCCN)NC(=O)[C@@H](Cc2c[nH]c3ccccc23)NC(=O)[C@H](Cc2ccccc2)NC(=O)[C@H](Cc2ccccc2)NC(=O)[C@H](CC(N)=O)NC(=O)[C@H](CCCCN)NC1=O [[^111In]AT2S, metal not drawn] , thanks.
Reply text: 0.66

* * *

Experiment: Biodistribution in AR4-2J tumor-bearing mice
Type: in vivo
Details: female, mouse, liver, iv, 10 pmol, total radioactivity; AR4-2J tumor SCID mice, 1 h pi; mean ± SD; read-out: Liver uptake
Protocol: In the flanks of each of female SCID mice, inocula (150 μL) containing a suspension of 0.8 × 10^7 AR4-2J cells in PBS buffer were subcutaneously injected. […] Mice were sacrificed at 4 h pi, and biodistribution was studied as described above. The in vivo data presented as mean %ID/g ± SD (n ≥ 4) were statistically analyzed with Student’s t test (Prism^TM 2.01, GraphPad Software, San Diego, CA, USA). Analyses were 2-tailed, and a P value < 0.05 was considered statistically significant.
measurement-kind: tissue uptake at 1 h (%ID/g)
Answer format: numeric, %ID/g implied, no suffix.

Inquiry: Need tissue uptake at 1 h of C[C@H](NC(=O)CN1CCN(CC(=O)O)CCN(CC(=O)O)CCN(CC(=O)O)CC1)C(=O)NCC(=O)N[C@H]1CSSC[C@@H](C(=O)O)NC(=O)[C@H](CO)NC(=O)[C@H]([C@@H](C)O)NC(=O)[C@H](Cc2ccccc2)NC(=O)[C@H]([C@@H](C)O)NC(=O)[C@H](CCCCN)NC(=O)[C@@H](Cc2c[nH]c3ccccc23)NC(=O)[C@H](Cc2ccccc2)NC(=O)[C@H](Cc2ccccc2)NC(=O)[C@H](CC(N)=O)NC(=O)[C@H](CCCCN)NC1=O [[^111In]AT2S, metal not drawn] , thanks.
Reply text: 1.27

* * *

Assay: Biodistribution in healthy mice
Assay type: in vivo
Conditions: male, mouse, kidney, 10 pmol total peptide, total radioactivity; healthy Swiss albino mice, 24 h pi, iv 10 pmol
measurement-kind: tissue uptake at 24 h

[
  {
    "compound": "C[C@H](NC(=O)CN1CCN(CC(=O)O)CCN(CC(=O)O)CCN(CC(=O)O)CC1)C(=O)NCC(=O)N[C@H]1CSSC[C@@H](C(=O)O)NC(=O)[C@H](CO)NC(=O)[C@H]([C@@H](C)O)NC(=O)[C@H](Cc2ccccc2)NC(=O)[C@H]([C@@H](C)O)NC(=O)[C@H](CCCCN)NC(=O)[C@H](Cc2c[nH]c3ccccc23)NC(=O)[C@H](Cc2ccccc2)NC(=O)[C@H](Cc2ccccc2)NC(=O)[C@H](CC(N)=O)NC(=O)[C@H](CCCCN)NC1=O [[^111In]AT1S, metal not drawn]",
    "measurement-kind": "tissue uptake at 24 h",
    "assay-value": "6.6 %ID/g"
  }
]

Shifting focus to the compound that follows.
Inquiry: Need tissue uptake at 24 h of C[C@H](NC(=O)CN1CCN(CC(=O)O)CCN(CC(=O)O)CCN(CC(=O)O)CC1)C(=O)NCC(=O)N[C@H]1CSSC[C@@H](C(=O)O)NC(=O)[C@H](CO)NC(=O)[C@H]([C@@H](C)O)NC(=O)[C@H](Cc2ccccc2)NC(=O)[C@H]([C@@H](C)O)NC(=O)[C@H](CCCCN)NC(=O)[C@@H](Cc2c[nH]c3ccccc23)NC(=O)[C@H](Cc2ccccc2)NC(=O)[C@H](Cc2ccccc2)NC(=O)[C@H](CC(N)=O)NC(=O)[C@H](CCCCN)NC1=O [[^111In]AT2S, metal not drawn] , thanks.
Reply text: 7.6 %ID/g

* * *

Assay: Biodistribution in HEK293-hsst5+ tumor-bearing mice
Type: in vivo
Details: mouse, intestines, iv, 10 pmol total peptide, total radioactivity; HEK293-hsst5+ tumor SCID mice, 4 h pi; mean ± SD; read-out: Intestines uptake
measurement-kind: tissue uptake at 4 h (%ID/g)
Answer format: numeric, %ID/g implied, no suffix.

Inquiry: Need tissue uptake at 4 h of C[C@H](NC(=O)CN1CCN(CC(=O)O)CCN(CC(=O)O)CCN(CC(=O)O)CC1)C(=O)NCC(=O)N[C@H]1CSSC[C@@H](C(=O)O)NC(=O)[C@H](CO)NC(=O)[C@H]([C@@H](C)O)NC(=O)[C@H](Cc2ccccc2)NC(=O)[C@H]([C@@H](C)O)NC(=O)[C@H](CCCCN)NC(=O)[C@@H](Cc2c[nH]c3ccccc23)NC(=O)[C@H](Cc2ccccc2)NC(=O)[C@H](Cc2ccccc2)NC(=O)[C@H](CC(N)=O)NC(=O)[C@H](CCCCN)NC1=O [[^111In]AT2S, metal not drawn] , thanks.
Reply text: 1.54

* * *

Assay: Biodistribution in AR4-2J tumor-bearing mice
Type: in vivo
Settings: female, mouse, heart, iv, 10 pmol, total radioactivity; AR4-2J tumor SCID mice, 4 h pi; mean ± SD; read-out: Heart uptake
Description: In the flanks of each of female SCID mice, inocula (150 μL) containing a suspension of 0.8 × 10^7 AR4-2J cells in PBS buffer were subcutaneously injected. […] Mice were sacrificed at 4 h pi, and biodistribution was studied as described above. The in vivo data presented as mean %ID/g ± SD (n ≥ 4) were statistically analyzed with Student’s t test (Prism^TM 2.01, GraphPad Software, San Diego, CA, USA). Analyses were 2-tailed, and a P value < 0.05 was considered statistically significant.
measurement-kind: tissue uptake at 4 h (%ID/g)
Answer format: numeric, %ID/g implied, no suffix.

Inquiry: Need tissue uptake at 4 h of C[C@H](NC(=O)CN1CCN(CC(=O)O)CCN(CC(=O)O)CCN(CC(=O)O)CC1)C(=O)NCC(=O)N[C@H]1CSSC[C@@H](C(=O)O)NC(=O)[C@H](CO)NC(=O)[C@H]([C@@H](C)O)NC(=O)[C@H](Cc2ccccc2)NC(=O)[C@H]([C@@H](C)O)NC(=O)[C@H](CCCCN)NC(=O)[C@@H](Cc2c[nH]c3ccccc23)NC(=O)[C@H](Cc2ccccc2)NC(=O)[C@H](Cc2ccccc2)NC(=O)[C@H](CC(N)=O)NC(=O)[C@H](CCCCN)NC1=O [[^111In]AT2S, metal not drawn] , thanks.
Reply text: 0.18

* * *

Assay: Biodistribution in HEK293-hsst3+ tumor-bearing mice
Assay type: in vivo
Details: mouse, stomach, iv, 10 pmol, total radioactivity; HEK293-hsst3+ tumor SCID mice, 4 h pi; mean ± SD; read-out: Stomach uptake
measurement-kind: tissue uptake at 4 h (%ID/g)
Answer format: numeric, %ID/g implied, no suffix.

Inquiry: Need tissue uptake at 4 h of C[C@H](NC(=O)CN1CCN(CC(=O)O)CCN(CC(=O)O)CCN(CC(=O)O)CC1)C(=O)NCC(=O)N[C@H]1CSSC[C@@H](C(=O)O)NC(=O)[C@H](CO)NC(=O)[C@H]([C@@H](C)O)NC(=O)[C@H](Cc2ccccc2)NC(=O)[C@H]([C@@H](C)O)NC(=O)[C@H](CCCCN)NC(=O)[C@@H](Cc2c[nH]c3ccccc23)NC(=O)[C@H](Cc2ccccc2)NC(=O)[C@H](Cc2ccccc2)NC(=O)[C@H](CC(N)=O)NC(=O)[C@H](CCCCN)NC1=O [[^111In]AT2S, metal not drawn] , thanks.
Reply text: 3.41

* * *

Assay: Biodistribution in AR4-2J tumor-bearing mice
Format: in vivo
Details: female, mouse, intestines, iv, 10 pmol total peptide, total radioactivity; AR4-2J tumor SCID mice, 4 h pi; mean ± SD; read-out: Intestines uptake
measurement-kind: tissue uptake at 4 h (%ID/g)
Answer format: numeric, %ID/g implied, no suffix.

Inquiry: Need tissue uptake at 4 h of C[C@H](NC(=O)CN1CCN(CC(=O)O)CCN(CC(=O)O)CCN(CC(=O)O)CC1)C(=O)NCC(=O)N[C@H]1CSSC[C@@H](C(=O)O)NC(=O)[C@H](CO)NC(=O)[C@H]([C@@H](C)O)NC(=O)[C@H](Cc2ccccc2)NC(=O)[C@H]([C@@H](C)O)NC(=O)[C@H](CCCCN)NC(=O)[C@@H](Cc2c[nH]c3ccccc23)NC(=O)[C@H](Cc2ccccc2)NC(=O)[C@H](Cc2ccccc2)NC(=O)[C@H](CC(N)=O)NC(=O)[C@H](CCCCN)NC1=O [[^111In]AT2S, metal not drawn] , thanks.
Reply text: 1.92
